- target under test: HTRA1, Q92743
- Sequence (Q92743 360-477): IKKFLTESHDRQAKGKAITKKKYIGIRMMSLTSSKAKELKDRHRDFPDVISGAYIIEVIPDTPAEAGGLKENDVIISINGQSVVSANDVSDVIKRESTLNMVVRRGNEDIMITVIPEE
- method: holdup assay
- Set-up: key: below the threshold = too weak to quantify, mostly under pKd 3.1 to 4
- conditions: plain residues with an end cap or a label only (N-terminal biotin on a linker: ado-ado)
// label = MET if pKd is not less than 4, otherwise NOT MET

{"binder": "ATKDKKITTV [EXOC4, Q96A65]", "answer label": "MET"}
{"binder": "TNSKQGETTV [FZD1, Q9UP38]", "answer label": "MET"}
{"binder": "PSDSVGKDVF [EGLN1, Q9GZT9]", "answer label": "NOT MET"}
{"binder": "GTMFLRETSL [GUCY1A2, P33402]", "answer label": "NOT MET"}
{"binder": "IQISELETNV [SLC1A7, O00341]", "answer label": "NOT MET"}
{"binder": "QKNKDREYYV [NRXN3, Q9HDB5]", "answer label": "MET"}

Q: Please check the record PKSNSSKEYV [CLDN7, O95471] and state if its pKd is at or above 4.
A: NOT MET

Q: Please check the record PALKNGQYWV [CSPG4, Q6UVK1] and state if its pKd is at or above 4.
A: MET

Q: Please check the record QRYPGNQTTC [CCL24, O00175] and state if its pKd is at or above 4.
A: NOT MET
